Consider the following compounds; for each one, report its GI50.
System: SNB-19 CNS
EXPERIMENT SUMMARY: NCI tumour cell line growth inhibition, 48 h

The recorded GI50 for entry CCCCNC(=O)NS(=O)(=O)c1ccc(N2N=C(c3ccc(C)cc3C)CC2c2ccc(N(C)C)cc2)cc1 (stereo not drawn) equals 4.59 µM

Per the records, this compound ( CCCCCCCCCCC(O)C1CCC(C2CCC(C(O)CCCCC(O)CCCCCC(O)CC3=CC(C)OC3=O)O2)O1 (stereo not drawn) ) has GI50 equal to 1.41 µM

compound `Nc1nccc(-c2c(-c3ccc(F)cc3)ncn2CCCN2CCOCC2)n1` , GI50 observed: > 25 µM
